Assay: NCI Yeast Anticancer Drug Screen. Data for the mgt1 strain (AID 153)
Conditions: S. cerevisiae mgt1 mutant growth inhibition; at 100.0 µM
The panel holds about 79,000 compounds, 15% with a hit somewhere; the sample as a whole holds those more often. Activity calls are given as the source filed them. Rule as the data show it: active = growth inhibition above about 70%; inactive = the rest.
Choose the fitting class; nothing outside active, inactive is accepted.

For CC1CCN(CCC(=O)c2ccc(Cl)cc2)CC1 , which call appears in the assay record?
inactive

For Oc1ccc2ccccc2c1C(c1ccc(Cl)cc1)c1c(O)ccc2ccccc12 , which call appears in the assay record?
active

For CCN(CC)CC(O)c1ccc2ccc3ccccc3c2c1 (stereo not given) , which call appears in the assay record?
inactive

For CC(/C=C/c1ccc2c(c1)OCO2)[N+](=O)[O-] (stereo not given) , which call appears in the assay record?
active

For CC(C)[N+]([O-])(CCCNc1c2ccccc2nc2cccc([N+](=O)[O-])c12)C(C)C , which call appears in the assay record?
active

For O=C1Nc2ccc(Cl)c(I)c2C1=O , which call appears in the assay record?
inactive

For Cn1c2ccccc2c(=O)c2cc(NC(=O)CCCCC(=O)Nc3ccc4c(c3)c(=O)c3ccccc3n4C)ccc21 , which call appears in the assay record?
inactive

For O=C(O)C1OC1(c1cccc(Cl)c1)c1ccccc1Cl (stereo not given) , which call appears in the assay record?
active

For CC(=O)Oc1ccc2c(c1)Cc1cc(N=C3C=CC(=O)O3)ccc1-2 , which call appears in the assay record?
active

For CN(C)c1nc2sc3c(c2c(=O)o1)CCCC3 , which call appears in the assay record?
inactive

For COc1cc(C(=O)/C=C/c2ccccc2O)ccc1O , which call appears in the assay record?
active

For CC(C)C1=CC2=C[C@H](O)[C@H]3C(C)(C)CCC[C@]3(C)C2=C(O)C1=O , which call appears in the assay record?
active

For CCN(CC)C(=S)N/N=C(/C)c1cccc(/C(C)=N\NC(=S)N(CC)CC)n1 , which call appears in the assay record?
active

For NCCNc1ccc(NCCN)c2c1C(=O)c1c(O)ccc(O)c1C2=O , which call appears in the assay record?
inactive

For CSC(=S)Nc1cc(C)ccn1 , which call appears in the assay record?
active

For CN(CCc1ccccn1)c1ccc2c(c1)Cc1ccccc1-2 , which call appears in the assay record?
inactive

For Cn1c(N)nc(-c2ccc(Cl)cc2)c1SSc1c(-c2ccc(Cl)cc2)nc(N)n1C , which call appears in the assay record?
active

For O=C(CCCN1CCC(O)(c2ccc(Cl)cc2)CC1)c1ccc(F)cc1 , which call appears in the assay record?
inactive

For C[S+](C)C1(c2ccccc2)C(=O)c2ccccc2C1=O , which call appears in the assay record?
inactive

For C/C(=N\O)C1CC2C=C(C#N)C1N(Cc1ccccc1)C2 (stereo not given) , which call appears in the assay record?
inactive

For CC/C(=C(\c1ccccc1)c1ccc(OCCN(C)C)cc1)c1ccccc1 , which call appears in the assay record?
active

For Cc1ccc2ccc3cccc4ccc1c2c34 , which call appears in the assay record?
inactive

For C=CC(C)(O)CCC1C(=C)C(O)CC2C(C)(C)CCCC12C (stereo not given) , which call appears in the assay record?
inactive

For CC[C@@]1(O)C(=O)OCc2c1cc1n(c2=O)Cc2cc3c(N)cccc3nc2-1 , which call appears in the assay record?
inactive

For CO[C@H]1C[C@](C)(O)Cc2cc3c(c(O)c21)C(=O)c1c(O)cc2c(c1C3=O)O[C@@H]1O[C@@]2(C)[C@H](O)[C@@H](N(C)C)[C@@H]1O , which call appears in the assay record?
inactive

For CC(/C=C/c1ccc(Cl)cc1)=N\NC(=S)NCC(C)C , which call appears in the assay record?
inactive

For NC(=NCc1ccccc1)N/N=C\c1ccnc2ccccc12 , which call appears in the assay record?
active

For CC(=O)SCCC[Si](C)(C)CCCSC(C)=O , which call appears in the assay record?
inactive

For CC(CC(C)(C)[N+](C)(C)C)[N+](C)(C)C (stereo not given) , which call appears in the assay record?
inactive

For C(CCSC1=NCCN1)CSC1=NCCN1 (tested in a mixture with another compound) , which call appears in the assay record?
active

For COC(=O)C1=C(C(=O)OC)C2(C)C=CC1O2 (stereo not given) , which call appears in the assay record?
active

For CCCCCCCCCCCCCCCCCCN(C)CC(COP(=O)([O-])OCC[N+](C)(C)C)OC (stereo not given) , which call appears in the assay record?
active

For C/C(=N\NC(=S)SCc1ccccc1)c1ccccn1 , which call appears in the assay record?
active

For Cc1c(C2=C(Br)C(=O)N(C)C2=O)c(=O)n(C)c(=O)n1C , which call appears in the assay record?
active

For Cc1ccc(N)c(S)c1 , which call appears in the assay record?
active

For O=C1C(=O)c2ccccc2C=C1[N+](=O)[O-] , which call appears in the assay record?
inactive

For CCS(=O)(=O)c1ccc(/C=C/C=N/NC(=S)NCC(C)C)cc1 , which call appears in the assay record?
inactive

For CC(C)(Br)C(=O)/C=C/c1ccc(Cl)c(Cl)c1 , which call appears in the assay record?
inactive

For O=[N+]([O-])c1ccc([N+]2=NC(c3ccccc3)=NN(c3ccccc3)C2)cc1 , which call appears in the assay record?
active

For COc1cc(C2SCC(=O)N2c2nnc(C(F)(F)F)s2)cc(OC)c1OC (stereo not given) , which call appears in the assay record?
inactive

For O=[N+]([O-])/C=C/c1ccc2ccccc2c1 , which call appears in the assay record?
active

For O=C(CC(=O)n1nc(-c2ccccc2)c(N=Nc2ccccc2C(=O)O)c1-c1ccccc1)Nc1ccc(Cl)cc1 , which call appears in the assay record?
inactive

For Cc1ccc(CCC2=CCCc3c2ccc2ccccc32)cc1 , which call appears in the assay record?
inactive

For Cc1[nH]c2ccccc2c1C(c1ccc(N)cc1)c1c(C)[nH]c2ccccc12 , which call appears in the assay record?
inactive

For O=C1c2ccccc2-c2n[nH]c3cccc1c23 , which call appears in the assay record?
inactive

Data origin: PubChem BioAssay (NCI)
